# experimental_target: T1, human complement C3b protein (human, UniProt P01024 23-667; P01024 749-1663)
# T1 construct: Purified plasma C3b (Complement Technology, Quidel); Depending on the assay it was captured by an anti-C3d antibody, coated, biotinylated or coupled to beads; also called human C3b; huC3b
# T1 sequence (P01024 23-667 P314L, chain 1 of 2): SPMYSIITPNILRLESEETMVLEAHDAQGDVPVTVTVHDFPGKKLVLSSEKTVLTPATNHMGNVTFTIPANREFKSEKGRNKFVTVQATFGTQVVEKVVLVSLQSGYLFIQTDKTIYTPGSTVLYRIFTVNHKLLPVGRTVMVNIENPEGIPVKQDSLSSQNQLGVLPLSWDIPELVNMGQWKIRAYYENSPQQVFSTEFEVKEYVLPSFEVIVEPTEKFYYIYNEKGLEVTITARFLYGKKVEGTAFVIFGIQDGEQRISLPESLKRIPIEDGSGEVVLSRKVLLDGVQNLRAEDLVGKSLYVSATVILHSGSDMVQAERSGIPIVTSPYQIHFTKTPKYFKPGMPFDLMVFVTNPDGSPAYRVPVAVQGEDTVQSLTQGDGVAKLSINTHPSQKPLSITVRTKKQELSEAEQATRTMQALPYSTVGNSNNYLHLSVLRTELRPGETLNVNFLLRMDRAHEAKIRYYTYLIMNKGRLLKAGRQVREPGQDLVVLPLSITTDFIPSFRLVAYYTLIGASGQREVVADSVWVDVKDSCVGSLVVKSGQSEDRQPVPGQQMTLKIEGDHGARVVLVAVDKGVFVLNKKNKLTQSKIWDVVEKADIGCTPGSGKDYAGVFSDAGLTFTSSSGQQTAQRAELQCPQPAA
# T1 sequence (P01024 749-1663, chain 2 of 2): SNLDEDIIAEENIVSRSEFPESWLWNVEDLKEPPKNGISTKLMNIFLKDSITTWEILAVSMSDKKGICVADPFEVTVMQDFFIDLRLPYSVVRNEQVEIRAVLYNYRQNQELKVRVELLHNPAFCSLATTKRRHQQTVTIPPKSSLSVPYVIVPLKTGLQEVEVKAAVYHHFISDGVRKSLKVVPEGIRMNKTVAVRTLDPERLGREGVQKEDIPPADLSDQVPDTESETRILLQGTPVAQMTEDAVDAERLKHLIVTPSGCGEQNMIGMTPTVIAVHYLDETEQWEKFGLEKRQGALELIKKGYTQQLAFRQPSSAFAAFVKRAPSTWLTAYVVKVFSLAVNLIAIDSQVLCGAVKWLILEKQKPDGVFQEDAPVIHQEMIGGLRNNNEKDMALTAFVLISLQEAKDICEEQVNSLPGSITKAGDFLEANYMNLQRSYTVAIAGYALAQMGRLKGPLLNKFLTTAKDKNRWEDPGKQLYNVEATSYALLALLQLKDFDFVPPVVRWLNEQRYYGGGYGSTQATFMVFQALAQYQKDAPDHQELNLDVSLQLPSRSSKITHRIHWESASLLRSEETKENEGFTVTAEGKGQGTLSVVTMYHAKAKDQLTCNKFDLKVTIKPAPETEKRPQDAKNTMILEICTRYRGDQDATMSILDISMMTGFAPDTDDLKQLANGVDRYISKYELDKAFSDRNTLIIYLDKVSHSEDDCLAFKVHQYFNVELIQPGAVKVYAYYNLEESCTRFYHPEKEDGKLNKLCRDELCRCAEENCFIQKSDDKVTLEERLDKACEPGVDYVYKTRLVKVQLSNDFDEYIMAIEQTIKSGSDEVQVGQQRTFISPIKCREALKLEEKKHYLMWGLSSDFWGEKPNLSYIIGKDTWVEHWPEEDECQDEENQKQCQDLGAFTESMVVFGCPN
# test_summary: ELISA, C3b or C3 captured by anti-C3d antibody
# Description: The C3b antibodies were examined to determine whether they were selective for binding to C3b relative to the C3b precursor C3. Briefly, binding selectivity for C3b was determined by performing the following steps. […] Dilute Fabs at 100 nM and subsequent dilutions (or higher concentration) in diluent and plate 100 μl per well. […] Add 50 μl of Stop solution (2N Sulfuric Acid) to each well and read plate at 450 nm and correct for plastic reading at 570 nm.
parameter_measured: fold binding selectivity for C3b over C3

MOR09610 IgG (antibody, V domains shown, Germlined human IgG1 with leucines 234 and 235 changed to alanines, kappa; also called antibody 9610) VH: EVQLVQSGAEVKKPGSSVKVSCKASGGTFSSYTFSWVRQAPGQGLEWMGNILPIFGDANYAQKFQGRVTITADESTSTAYMELSSLRSEDTAVYYCARNKGAFYYMSTYPSLDVWGQGTLVTVSS VL: DIQMTQSPSSLSASVGDRVTITCRASQNINYYLNWYQQKPGKAPKLLIYDAFSLQSGVPSRFSGSGSGTDFTLTISSLQPEDFATYYCQQSIAVPPFTFGQGTKVEIKR : > 1000 fold
MOR09611 IgG (antibody, V domains shown, Germlined human IgG1 with leucines 234 and 235 changed to alanines, kappa; also called antibody 9611) VH: EVQLVESGGGLVQPGGSLRLSCAASGFTFSSYWMTWVRQAPGKGLEWVSSIKIKPDGYAASVKGRFTISRDNSKNTLYLQMNSLRAEDTAVYYCARLFYQYFARMDYWGQGTLVTVSS VL: DIQMTQSPSSLSASVGDRVTITCRASQDISNYLNWYQQKPGKAPKLLIYAASNLQSGVPSRFSGSGSGTDFTLTISSLQPEDFATYYCQQHDTFRPTFGQGTKVEIKR : > 1000 fold
